system_tested: E180D Orai mutant + Stim (Drosophila melanogaster, UniProt Q9U6B8, E178D)
Construct: A cDNA clone, pAc5.1/olf186-F, encoding full-length Drosophila olf186-F-RB; expressed in transfected cells; host or cells: Drosophila S2 cells (Invitrogen)
Sequence (Q9U6B8 whole entry E178D): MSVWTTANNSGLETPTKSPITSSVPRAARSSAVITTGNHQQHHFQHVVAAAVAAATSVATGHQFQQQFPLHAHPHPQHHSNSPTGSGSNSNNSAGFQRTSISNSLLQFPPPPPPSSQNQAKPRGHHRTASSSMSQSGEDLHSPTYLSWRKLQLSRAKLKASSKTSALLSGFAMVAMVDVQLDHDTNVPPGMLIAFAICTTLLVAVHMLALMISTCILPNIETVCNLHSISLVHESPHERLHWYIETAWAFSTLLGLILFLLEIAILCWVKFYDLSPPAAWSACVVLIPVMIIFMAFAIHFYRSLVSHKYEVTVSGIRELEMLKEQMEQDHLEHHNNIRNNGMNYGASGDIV
Sequence (P83094 24-570, further chain): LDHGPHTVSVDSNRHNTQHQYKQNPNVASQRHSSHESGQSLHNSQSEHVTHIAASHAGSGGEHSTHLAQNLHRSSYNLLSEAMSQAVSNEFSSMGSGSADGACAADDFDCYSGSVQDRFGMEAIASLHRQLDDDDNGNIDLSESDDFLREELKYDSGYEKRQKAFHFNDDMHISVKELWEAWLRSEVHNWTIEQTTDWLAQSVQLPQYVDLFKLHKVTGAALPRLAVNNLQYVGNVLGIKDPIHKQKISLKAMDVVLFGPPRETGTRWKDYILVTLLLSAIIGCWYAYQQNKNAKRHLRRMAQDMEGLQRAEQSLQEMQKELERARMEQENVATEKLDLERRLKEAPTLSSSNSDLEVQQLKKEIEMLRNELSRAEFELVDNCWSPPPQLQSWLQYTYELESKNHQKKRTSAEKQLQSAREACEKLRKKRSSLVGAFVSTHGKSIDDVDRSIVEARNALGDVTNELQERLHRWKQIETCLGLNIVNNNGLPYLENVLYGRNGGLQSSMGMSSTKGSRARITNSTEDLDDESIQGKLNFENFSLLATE
run_description: Whole-cell recording of E180D Orai-induced CRAC current in S2 cells
Format: cell-based
condition_set: IC50, half-blocking Ca2+ concentration for inward current, at −130 mV, scaled to current in divalent-free solution
assay_endpoint: pIC50
When answering, recall that pIC50 equals minus log10 of the concentration in mol/L, and write that number alone.

Query: Give the reported value of pIC50 for this record: "[Ca+2]"
Result: 4.32
